target: SmCA (Schistosoma mansoni); construct: rSmCA N21-A298, signal peptide and C-terminal GPI-anchoring signal removed; Igk leader, C-terminal myc and His6 tags; secreted by CHO-S cells, IMAC; codon-optimized gene; native ~37 kDa GPI-linked glycoprotein; assay: stopped-flow CO2 hydrase assay; type: biochemical; conditions: read-out: SmCA ^b
Sequence (A0A4Y5UX87 21-298): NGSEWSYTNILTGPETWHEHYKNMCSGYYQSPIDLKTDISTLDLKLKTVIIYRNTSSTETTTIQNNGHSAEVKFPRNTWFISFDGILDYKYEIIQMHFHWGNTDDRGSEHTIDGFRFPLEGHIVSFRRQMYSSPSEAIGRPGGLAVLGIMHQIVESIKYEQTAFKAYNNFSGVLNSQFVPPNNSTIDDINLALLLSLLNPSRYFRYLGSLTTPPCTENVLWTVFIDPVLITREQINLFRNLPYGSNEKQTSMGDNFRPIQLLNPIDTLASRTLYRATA
observable: pKi
pKi field: float, defined as -log10 of concentration (mol/L).

Use these answered entries as a reference point.
>  <query_smiles>
Nc1nnc(S(N)(=O)=O)s1

>  <target_system>
SmCA (Schistosoma mansoni)

>  <pKi>
6.86

$$$$
>  <query_smiles>
NCc1ccc(S(N)(=O)=O)cc1

>  <target_system>
SmCA (Schistosoma mansoni)

>  <pKi>
5.02

$$$$

Ask: Give its pKi value. Item: Cc1ccc(S(N)(=O)=O)cc1
Result: 5.34

Ask: Next: Nc1ccc(S(N)(=O)=O)cc1Br
Result: 6.09

Ask: Would you kindly repeat that for Nc1ccc(S(N)(=O)=O)cc1 ?
Result: 5.17
